# Assay explanation: Rat liver microsome metabolic stability
# Type: in vitro ADME
# Test parameters: SD, microsomes, pH 7.4, 1 μM compound, 0.5 mg/mL protein, NADPH, read-out: Rat liver microsome experiment t1/2
Observable: half-life at 1 μM (min)

- CC(C)OC(=O)[C@H](C)NP(=S)(CO[C@H](C)Cn1cnc2c(N)ncnc21)Oc1ccccc1 (stereo partly shown) [Compound T-3]: 16.8

* * *

# Test system: HIV-1
# Assay explanation: microbe, parasite or virus in culture
# Test parameters: Human immunodeficiency virus 1, MT4, 120 h, read-out: HIV activity and cytotoxicity data EC50 (nM)
# maps each entry to its EC50
Observable: EC50

* CCCCCCCCCCCCCCCCOCCCOP(O)(=S)CO[C@H](C)Cn1cnc2c(N)ncnc21 (stereo partly shown) | 5 to 20 nM
* CCCCCCCCCCCCCCCCOCCCOP(=S)(CO[C@H](C)Cn1cnc2c(N)ncnc21)N[C@@H](C)C(=O)OC(C)C (stereo partly shown) | > 500 nM
* CCCCCCCCCCCCCCCCOCCCOP(=S)(CO[C@H](C)Cn1cnc2c(N)ncnc21)OCOC(=O)OC(C)C (stereo partly shown) | > 500 nM
* CC(=O)SCCOP(=O)(CO[C@H](C)Cn1cnc2c(N)ncnc21)OCOC(=O)OC(C)C (stereo partly shown) | 20 to 100 nM
* CC(C)OC(=O)[C@H](C)NP(=S)(CO[C@H](C)Cn1cnc2c(N)ncnc21)Oc1ccccc1 (stereo partly shown) | 5 to 20 nM
* CCCCCCCCCCCCCCCCOCCCOP(=O)(CO[C@H](C)Cn1cnc2c(N)ncnc21)OCOC(=O)SC(C)C (stereo partly shown) | 5 to 20 nM
* CCCCCCCCCCCCCCCCOCCCOP(=O)(CO[C@H](C)Cn1cnc2c(N)ncnc21)N[C@@H](C)C(=O)SC(C)C (stereo partly shown) | < 5 nM

* * *

// reported half-life at 1 μM per item
# Assay explanation: Human liver microsome metabolic stability
# Assay type: in vitro ADME
# Test parameters: human liver microsomes, pH 7.4, 1 μM compound, 0.5 mg/mL protein, NADPH, read-out: Human liver microsome experiment t1/2
Observable: half-life at 1 μM (min)

* CCCCCCCCCCCCCCCCOCCCOP(=O)(CO[C@H](C)Cn1cnc2c(N)ncnc21)N[C@@H](C)C(=O)SC(C)C (stereo partly drawn) | 16.4
* CCCCCCCCCCCCCCCCOCCCOP(=O)(CO[C@H](C)Cn1cnc2c(N)ncnc21)OCOC(=O)SC(C)C (stereo partly drawn) | 32.5
* CC(=O)SCCOP(=O)(CO[C@H](C)Cn1cnc2c(N)ncnc21)OCOC(=O)OC(C)C (stereo partly drawn) | 16.5

* * *

# Assay explanation: Rat liver microsome metabolic stability
# Type: in vitro ADME
# Test parameters: SD, microsomes, pH 7.4, 1 μM compound, 0.5 mg/mL protein, NADPH, read-out: Rat liver microsome experiment t1/2
Observable: half-life (h)

• CCCCCCCCCCCCCCCCOCCCOP(O)(=S)CO[C@H](C)Cn1cnc2c(N)ncnc21 (stereo partly drawn) = 4.16
• CCCCCCCCCCCCCCCCOCCCOP(=S)(CO[C@H](C)Cn1cnc2c(N)ncnc21)N[C@@H](C)C(=O)OC(C)C (stereo partly drawn) = 2.33
• CCCCCCCCCCCCCCCCOCCCOP(=S)(CO[C@H](C)Cn1cnc2c(N)ncnc21)OCOC(=O)OC(C)C (stereo partly drawn) = 0.337

* * *

# Assay explanation: Cytotoxicity experiment of the anti-HBV test (Cell-titer Blue)
# Type: cell-based
# Test parameters: human, six days after treatment
Observable: CC50 at 6 days

- CC(C)OC(=O)[C@H](C)NP(=S)(CO[C@H](C)Cn1cnc2c(N)ncnc21)Oc1ccccc1 (stereo partly shown) [Compound T-3]: > 50 µM

* * *

# Assay explanation: Human liver microsome metabolic stability
# Format: in vitro ADME
# Test parameters: human liver microsomes, pH 7.4, 1 μM compound, 0.5 mg/mL protein, NADPH, read-out: Human liver microsome experiment CLint
Observable: microsomal CLint at 1 μM

* CCCCCCCCCCCCCCCCOCCCOP(=O)(CO[C@H](C)Cn1cnc2c(N)ncnc21)N[C@@H](C)C(=O)SC(C)C (stereo partly drawn) [Compound T-7] | 84.4 µL/min/mg
* CC(=O)SCCOP(=O)(CO[C@H](C)Cn1cnc2c(N)ncnc21)OCOC(=O)OC(C)C (stereo partly drawn) [Compound T-8] | 84.1 µL/min/mg
* CCCCCCCCCCCCCCCCOCCCOP(=O)(CO[C@H](C)Cn1cnc2c(N)ncnc21)OCOC(=O)SC(C)C (stereo partly drawn) [Compound T-5] | 42.7 µL/min/mg
